Source: the RNAGym collection of RNA variant scans (doi:10.1038/nmeth.2970)

B1: GFP aptamer (parent)
chain: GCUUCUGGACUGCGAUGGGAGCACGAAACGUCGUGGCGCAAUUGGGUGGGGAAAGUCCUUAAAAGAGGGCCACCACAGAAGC

# Variants of: B1
# assayMethodText: HiTS-RAP
# conditionContext: with EGFP
readoutType: Kd (nM)
Provide the reading as a plain figure in nM.

Which Kd value is on record for U31G ?
3.99

Same lookup for G30A C73U , please.
0.856

Again, but for C10U U47C
1.58

Now consider A9C and answer again.
8

What about this variant? A41G A77G
7.24

Input C37A
5.05

# iterate: C74G
14.5

Moving on to the next variant: U42C U47C
19.6

Can you check A80C next?
12.1

Also C22U A41G , if possible.
21.2

Lookup A27C
4.47

Subsequent entry: A20G A27G
4.69

Then what about the variant C10U A23G ?
5.08

Now try C24G .
13.2

Please answer likewise for U60G
5.38

Another: C32U C70U
11.5

Field entry: C70A
79.2

Please do the same for C13U U42C as well.
3.54

Thanks! And G25A U43C ?
2.24

Entry G25A A27G please
5.68

Now the same for G33A A79G
11.9

Further, for G30A G68A ?
31.8

# repeat for C22U C58U
12.7

Another variant: A53G
33.3

Also check A41G U47C
2.42

Next: A15G
4.76

Follow-up item: U31C A75G
14
